Structures can show the parent of a compound that is named as a salt.
Here we list compounds with their recorded MIC when tested on Salmonella typhosa, 1195.
The answer is to be given in µg/mL; state only the numeric part.

Known MIC results, listed for orientation:
>>> recorded_measurement("C[C@@H]1[C@H](NC(=O)[C@H](NC(=O)N2CCN(NC(=O)OCc3ccccc3)C(=O)C2=O)c2ccccc2)C(=O)N1S(=O)(=O)O (relative stereo) [Example 20, potassium salt]")
1.6
>>> recorded_measurement("C[C@H]1[C@H](NC(=O)/C(=N\\OC(C)(C)C(=O)OCc2ccc([N+](=O)[O-])cc2)c2csc(N)n2)C(=O)N1S(=O)(=O)O [Example 15, potassium salt]")
6.3
>>> recorded_measurement("CC1C(NC(=O)C(NC(=O)C(N)=O)c2cccs2)C(=O)N1S(=O)(=O)O (racemic) [Example 14, potassium salt]")
0.8
>>> recorded_measurement("CC1C(NC(=O)C(NC(=O)N2CCN(N=Cc3ccco3)C2=O)c2ccccc2)C(=O)N1S(=O)(=O)O (centres unmarked) [Example 11, potassium salt]")
0.2
>>> recorded_measurement("C[C@H]1[C@H](NC(=O)/C(=N\\OCC(=O)O)c2csc(N)n2)C(=O)N1S(=O)(=O)O [Example 31, dipotassium salt]")
0.2
>>> recorded_measurement("CCN1CCN(C(=O)NC(C(=O)NC2C(=O)N(S(=O)(=O)O)C2C)c2ccccc2)C(=O)C1=O (centres unmarked) [Example 12, potassium salt]")
0.2

# next compound below
Q: I am curious: what MIC value has been reported for CC1C(NC(=O)Cc2ccccc2)C(=O)N1S(=O)(=O)O (racemic) [Example 4, potassium salt] ?
A: 100

---

Structures can show the parent of a compound that is named as a salt.
Here we list molecules with their recorded MIC when tested on Escherichia coli, 10857.
The answer is to be given in µg/mL; state only the numeric part.

Q: I am curious: what MIC value has been reported for CC1C(NC(=O)C(=NO)c2csc(N)n2)C(=O)N1S(=O)(=O)O (stereo not shown) [Example 13, potassium salt] ?
A: 1.6

Q: I am curious: what MIC value has been reported for CC1(C)C(NC(=O)Cc2ccccc2)C(=O)N1S(=O)(=O)O (racemic) [Example 26, potassium salt] ?
A: 50

Q: I am curious: what MIC value has been reported for C[C@H]1[C@H](NC(=O)/C(=N\OCC(=O)O)c2csc(N)n2)C(=O)N1S(=O)(=O)O [Example 31, dipotassium salt] ?
A: 0.2

Q: I am curious: what MIC value has been reported for C[C@H]1[C@H](NC(=O)C(=O)c2csc(N)n2)C(=O)N1S(=O)(=O)O [Example 27, potassium salt] ?
A: 3.1

Q: I am curious: what MIC value has been reported for CCN1CCN(C(=O)N[C@@H](C(=O)N[C@@H]2C(=O)N(S(=O)(=O)O)[C@@H]2C)c2ccccc2)C(=O)C1=O (relative stereo) [Example 22, potassium salt] ?
A: 0.1

Q: I am curious: what MIC value has been reported for CC1C(NC(=O)Cc2ccccc2)C(=O)N1S(=O)(=O)O (racemic) [Example 4, potassium salt] ?
A: 50

Q: I am curious: what MIC value has been reported for CC1C(NC(=O)C(NC(=O)C(N)=O)c2cccs2)C(=O)N1S(=O)(=O)O (racemic) [Example 14, potassium salt] ?
A: 0.4

Q: I am curious: what MIC value has been reported for C[C@H]1[C@H](NC(=O)/C(=N\OC(C)(C)C(=O)OCc2ccc([N+](=O)[O-])cc2)c2csc(N)n2)C(=O)N1S(=O)(=O)O [Example 15, potassium salt] ?
A: 0.4
